Experiment: recombinant UMI read abundance after kanamycin selection (control-corrected) (log10(CPM+1)); higher = more efficient recombination; extreme values may be limits of the assay; sequences stand for … in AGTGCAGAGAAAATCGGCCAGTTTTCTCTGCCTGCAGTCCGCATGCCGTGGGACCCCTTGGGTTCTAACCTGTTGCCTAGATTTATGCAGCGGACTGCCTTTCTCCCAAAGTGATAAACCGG…AGGTTGGTTTCACT; site = the 11-nt donor;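 also: IS621 bridge recombinase in Escherichia coli cells against a fixed T5 target plasmid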

| sequence.content | recombinant UMI read abundance (log10) |
| --- | --- |
| GATGGGACATGGACCGGTTTTCCCGGTAATCCGTATTTGAC (site GATAGGACTGT) | 1.69 |
| TCCACGGCATGGACCGGTTTTCCCGGTAATCCGTATTTGCG (site TCCACTGCTCG) | 0 |
| TTGAATACATGGACCGGTTTTCCCGGTAATCCGTATTTGCA (site TTGAATACTTG) | 0.467 |
| TCCTCCGCATGGACCGGTTTTCCCGGTAATCCGTATTTGCG (site TCCACCGCTCG) | 0.00517 |
| GTTAGGACATGGACCGGTTTTCCCGGTAATCCGTATTTGGC (site GTTAGCACTGC) | 0 |
| GAATCGCCATGGACCGGTTTTCCCGGTAATCCGTATTTGCA (site GAATCGCCTTG) | 0.687 |
| TTTGCTGCATGGACCGGTTTTCCCGGTAATCCGTATTTGTG (site TTAGCTGCTCA) | 0.0128 |
| AGCCTCGCATGGACCGGTTTTCCCGGTAATCCGTATTTGTT (site AGCCTGGCTAA) | 0.00929 |
| AACCGTCCATGGACCGGTTTTCCCGGTAATCCGTATTTGAT (site ACCCGTCCTAT) | 0 |
